In this section, each of the compounds is paired with its reported IC50.
TARGET: recombinant autotaxin (Homo sapiens, UniProt Q13822)
Construct: made in house; host or cells: Hi5 insect cells (baculovirus)
TEST_PROTOCOL: Autotaxin test (enzyme test), Amplex Red
Assay type: biochemical
EXPERIMENTAL_PARAMETERS: Autotaxin inhibition (enzyme test), TABLE 1 (A compounds); substrate LPC 75 μM

{"SMILES_REPRESENTATION": "COc1ccc(Cl)cc1NC(=O)CN1CCc2nc3c(Br)cccc3c(C(=O)N3CCOCC3)c2C1", "METRIC": "IC50", "READING": "0.1 to 1 µM"}
{"SMILES_REPRESENTATION": "O=C(CN1CCc2nc3ccccc3c(C(=O)N3CCN(CCO)CC3)c2C1)Nc1cc(Cl)cc2ncoc12", "METRIC": "IC50", "READING": "> 1 µM"}
{"SMILES_REPRESENTATION": "COc1ccc(-c2ccccc2)cc1NC(=O)CN1CCc2nc3ccccc3c(C(=O)N3CCOCC3)c2C1", "METRIC": "IC50", "READING": "0.1 to 1 µM"}
{"SMILES_REPRESENTATION": "O=C(CN1CCc2nc3ccccc3c(C(=O)N3CCN(CCO)CC3)c2C1)Nc1ccc(N2CCOCC2=O)c(Cl)c1", "METRIC": "IC50", "READING": "> 1 µM"}
{"SMILES_REPRESENTATION": "COc1ccc(Cl)cc1NC(=O)CN1CCc2nc3cc(Cl)ccc3c(C(=O)N3CCOCC3)c2C1", "METRIC": "IC50", "READING": "0.1 to 1 µM"}

Next up:
Incoming: What measured IC50 is associated with `COc1ccc(Cl)cc1NC(=O)CN1CCc2nc3c(Cl)cccc3c(C(=O)N3CCOCC3)c2C1` on recombinant autotaxin (Homo sapiens, UniProt Q13822)?
Outgoing: 0.1 to 1 µM

* * *

TARGET: recombinant autotaxin (Homo sapiens)
Construct: made in house; host or cells: Hi5 insect cells (baculovirus)
TEST_PROTOCOL: Autotaxin test (enzyme test), Amplex Red
Format: biochemical
EXPERIMENTAL_PARAMETERS: Autotaxin inhibition (enzyme test), TABLE 1 (A compounds); substrate LPC 75 μM
pIC50: −log10 of the molar value.
In this section, each of the compounds is paired with its reported pIC50.

Worked set:
{"SMILES_REPRESENTATION": "COc1ccc(Cl)cc1N(C)C(=O)CN1CCc2nc3ccccc3c(C(=O)N3CCOCC3)c2C1", "pIC50": "6.00 to 7.00"}
{"SMILES_REPRESENTATION": "CCN1CCN(C(=O)c2c3c(nc4ccccc24)CCN(CC(=O)Nc2cc(Cl)ccc2OC)C3)CC1", "pIC50": "> 7.00"}
{"SMILES_REPRESENTATION": "O=C(CN1CCc2nc3ccccc3c(C(=O)N3CCN(CCO)CC3)c2C1)Nc1ccc(F)c(Cl)c1", "pIC50": "< 6.00"}
{"SMILES_REPRESENTATION": "COc1ccc(Cl)cc1NC(=O)CN1CCc2nc3ccccc3c(C(=O)N3CCN(C4CCCC4)CC3)c2C1", "pIC50": "6.00 to 7.00"}

Incoming: What does the data say about its pIC50? Entry: `CN1CCN(C(=O)c2c3c(nc4ccccc24)CCN(C(=O)CCc2ccc(Cl)cc2F)C3)CC1`
Outgoing: < 6.00

Incoming: Lookup `O=C(CN1CCc2nc3ccccc3c(C(=O)N3CCOCC3)c2C1)Nc1ccc(Cl)cc1O`
Outgoing: 6.00 to 7.00

Incoming: Lookup `CCCN1CCN(C(=O)c2c3c(nc4ccccc24)CCN(CC(=O)Nc2cc(Cl)ccc2OC)C3)CC1`
Outgoing: > 7.00

* * *

In this section, each of the compounds is paired with its reported pIC50.
TARGET: recombinant autotaxin (Homo sapiens)
Construct: made in house; host or cells: Hi5 insect cells (baculovirus)
TEST_PROTOCOL: Autotaxin test (enzyme test), Amplex Red
Type: biochemical
EXPERIMENTAL_PARAMETERS: Autotaxin inhibition (enzyme test), TABLE 1 (A compounds); substrate LPC 75 μM
pIC50: −log10 of the molar value.

Worked set:
{"SMILES_REPRESENTATION": "COc1ccc(Cl)cc1NC(=O)CN1CCc2nc3ccccc3c(C(=O)N3CCN(CCN(C)C)CC3)c2C1", "READING": "> 7.00"}
{"SMILES_REPRESENTATION": "COc1ccc(Cl)cc1NC(=O)CN1CCc2nc3ccccc3c(C(=O)N3CCN(CCN4CCCCC4)CC3)c2C1", "READING": "> 7.00"}
{"SMILES_REPRESENTATION": "O=C(CN1CCc2nc3ccccc3c(C(=O)N3CCOCC3)c2C1)Nc1cccc2ccoc12", "READING": "< 6.00"}
{"SMILES_REPRESENTATION": "O=C(CN1CCc2nc3ccccc3c(C(=O)N3CCN(CCO)CC3)c2C1)Nc1ccc(Cl)c(Cl)c1", "READING": "< 6.00"}

Next up:
Incoming: What measured pIC50 is associated with `COc1c(Cl)cc(Cl)cc1NC(=O)CN1CCc2nc3ccccc3c(C(=O)N3CCN(CCO)CC3)c2C1` on recombinant autotaxin (Homo sapiens)?
Outgoing: 6.00 to 7.00
